# System: RARa homodimer (NR concentration 270 nM)
# testProtocol: PBM binding z-score (relative to random genomic background probes); higher = stronger binding; sequences stand for … in GC…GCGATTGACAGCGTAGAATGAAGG
Reported values of PBM binding z-score for individual entries
property: PBM binding z-score

GCGACTGGGGAAAAGCAGGTTACCATAAGGTTGG	-0.675
ACTATTAGTCGACTTAGGGCAACCGATACGACGC	-0.494
TCTTGCAGATCAAAGGTTAAGAAAGCCGAAGCCT	-0.444
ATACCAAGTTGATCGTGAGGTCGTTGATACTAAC	1.04
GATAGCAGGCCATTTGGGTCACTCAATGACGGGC	-0.472
ACTAGCAGGCCTAGTTTGGGTCACTCAAACAAAG	-0.718
TAGCCTAGGTCGTGCGGGCCAGTATAGTGTCGGC	-1.19
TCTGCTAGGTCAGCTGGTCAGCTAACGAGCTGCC	-1.54
AATACAGGGTCACTAGGCGAGAGTAGGTACGAAT	1.4
AGAACGAGGGCAAGCTGAGTTGATAGCAGAGTAG	-0.421
ACTCACGGGTCAACGAGGTTATAGCACGCGTATA	1.43
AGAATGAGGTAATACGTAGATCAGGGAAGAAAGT	0.262
CGTCCAAGGTCAAAGGTCGGTGAAGAGATGACGG	0.478
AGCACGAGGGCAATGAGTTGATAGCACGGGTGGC	-0.029
GCTGCTAGGTCAGGTTGATCAGCTAACGGGTACG	-0.919
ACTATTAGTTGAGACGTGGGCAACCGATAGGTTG	-0.357
ATATGTAGGTTATGGGTCATTCAGGTTGGTTCGC	2.31
AGTCAAAGTTCACTAAGTAACGTAAGATTCAGCT	1.23
CCGACTGGGGCAATGGTTACCATACTCAGTACGA	-0.393
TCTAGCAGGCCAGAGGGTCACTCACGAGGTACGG	-0.397
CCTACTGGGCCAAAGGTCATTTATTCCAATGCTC	2.22
CGTCCAAGGGCATAGGAGGTCAGTGAAGACAGAT	0.923
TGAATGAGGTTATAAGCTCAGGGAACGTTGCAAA	-1.17
TCTGCTAGGTCAGTAGGTCAGCTAACGAGCTGCC	-1.38
GCTGCTAGGTCCACTGATGGTCAGCTAAAGCTCG	-1.55
TATACAGGGTCAATGGCCAGAGTACGAATGTCGA	0.771
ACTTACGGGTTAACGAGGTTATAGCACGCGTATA	0.88
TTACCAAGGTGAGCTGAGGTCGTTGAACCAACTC	-0.877
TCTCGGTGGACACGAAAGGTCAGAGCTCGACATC	-0.0957
TGTCAAAATTCAAAGGTAACGTAAGTATCCACAC	0.683
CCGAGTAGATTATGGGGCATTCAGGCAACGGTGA	-0.197
CCTTACCGGTCACTCCAGGTTATAGCATCGGAGT	1.2
ATCGAAAGGTCGAAGGTTAGTATACCCACCCGAA	1.42
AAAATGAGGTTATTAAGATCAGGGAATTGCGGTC	0.567
ATCTCTAGGTAAAGTACAGTGAAAGATCGATAGA	1.59
CCGACTGGGGCAGGGTTACCATAACGCACAGCCA	-0.407
TGAATGAGGTTTTAAGATCAGGGAACGTTGCAAA	0.043
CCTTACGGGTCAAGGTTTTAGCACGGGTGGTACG	0.944
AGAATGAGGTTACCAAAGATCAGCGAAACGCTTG	0.0511
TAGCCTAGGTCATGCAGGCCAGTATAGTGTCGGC	-0.161
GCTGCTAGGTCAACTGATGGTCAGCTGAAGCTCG	-0.515
CGTCCAACGTCAGAGAGGTCAGTGAATGCCGAGT	0.224
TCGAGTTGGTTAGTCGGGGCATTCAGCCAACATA	-0.783
TCGTGTAGATCAGCAGGTTAAGAAAGCTGGCCAA	-0.19
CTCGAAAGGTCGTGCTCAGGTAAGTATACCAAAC	0.0606
AGACTGAGGTTAAGATCAGGGAAACAGAATACAT	-0.0293
CGAACTAGGTCAGAACAGGACAGAGAAGGATGAT	0.919
CAAGCTAGGTCACCGGAAGGTCAAAGTCCGCATG	3.45
CAAACTAGGTTAAAGGTCAAAGTCGAGCCAACCA	3.41
TCTCGGAGGACACGAAGGTCAGAGGTTTCCAGAG	0.0674
TCGTGTAGATCAACAGGAGGTTAAGAAAGATCGA	-0.074
